- Assay text: AUClast in C57BL/6 mouse brain at 24.5 mg/kg, iv administered as single dose measured 24 hrs by UPLC-MS/MS analysis
- Format: ADME, organism-based
- Set-up: dose 24.5 mg/kg, route intravenous, time 0 - last
Reported metric: AUC(0-t) at 24 h (ng·h/mL)

- Smiles entry: "C[C@H](Cc1ccc(OCc2ccc(Br)c(Cl)c2)cc1)N(C)CC(=O)O"
  Recorded number: 10700

###

- Assay text: Tmax in C57BL/6 mouse brain at 24.5 mg/kg, po administered as single dose measured 24 hrs by UPLC-MS/MS analysis
- Type: ADME, organism-based
Reported metric: Tmax (h)

- Smiles entry: "C[C@H](Cc1ccc(OCc2ccc(Br)c(Cl)c2)cc1)N(C)CC(=O)O"
  Reported metric: "Tmax"
  Recorded number: 6

From: ChEMBL document CHEMBL4229446
